Give measured Cmax for each item. Keep answers brief.
# assay-protocol: Cmax in Swiss mouse at 100 mg/kg, po administered as single dose via gavage by LC-MS analysis
# Format: ADME, organism-based
# Parameters: dose 100 mg/kg, route oral
# condition-parameters: in vivo
Numeric only. Scale: µM

Value lookup for Cmax; key = O=C(Nc1ccc2c(c1)OC(F)(F)O2)Nc1ccc2c(c1)OC(F)(F)O2
25

Item: N#Cc1ccc(NC(=O)Nc2ccnc(C(F)(F)F)c2)cc1
20

Item: O=C(Nc1ccnc(C(F)(F)F)c1)Nc1ccnc(C(F)(F)F)c1
40

Item: O=C(Nc1ccnc(C(F)(F)F)c1)Nc1ccc(F)c(C(F)(F)F)c1
56

Item: O=C(Nc1ccc(F)c(C(F)(F)F)c1)Nc1ccc(F)c(C(F)(F)F)c1
31

Item: O=C(Nc1ccnc(C(F)(F)F)c1)Nc1ccc2c(c1)OC(F)(F)O2
55

Item: O=C(Nc1ccc2c(c1)OC(F)(F)O2)Nc1ccc(F)c(C(F)(F)F)c1
27

Item: N#Cc1ccc(NC(=O)Nc2ccc(F)c(C(F)(F)F)c2)cc1
31
